Property: pIC50; scope: individual compounds
Molecular target: Arginase-2, mitochondrial (Homo sapiens)
Sequence (P78540 whole entry): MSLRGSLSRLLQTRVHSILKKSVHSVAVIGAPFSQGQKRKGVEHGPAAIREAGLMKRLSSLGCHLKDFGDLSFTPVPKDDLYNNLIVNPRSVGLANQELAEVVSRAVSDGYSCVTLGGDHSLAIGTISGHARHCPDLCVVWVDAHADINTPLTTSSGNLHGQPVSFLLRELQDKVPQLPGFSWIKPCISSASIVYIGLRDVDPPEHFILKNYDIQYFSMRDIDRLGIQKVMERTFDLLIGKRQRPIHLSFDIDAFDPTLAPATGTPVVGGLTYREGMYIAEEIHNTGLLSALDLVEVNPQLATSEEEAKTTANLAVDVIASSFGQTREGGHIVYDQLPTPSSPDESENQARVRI
Experiment: in vitro enzyme assay to detect the production of urea directly proportional to the activity of Arginase II
pIC50: −log10 of the molar value.
QUANTITY_NAME: pIC50

compound=CN(CCO)C(=O)c1coc(CN2CCN(c3ccccc3F)CC2)n1 tested_system="Arginase-2, mitochondrial (Homo sapiens)" reported_result="< 4.00"
compound="O=C1CSC(c2ccsc2)c2c(n(C3CCOCC3)[nH]c2=O)N1 (stereo unspecified)" tested_system="Arginase-2, mitochondrial (Homo sapiens)" reported_result="< 4.00"
compound="CSc1ccccc1C(C(=O)O)N1CCN(Cc2ccccn2)CC1 (stereo unspecified)" tested_system="Arginase-2, mitochondrial (Homo sapiens)" reported_result="< 4.00"
compound="COc1ccccc1Oc1ncccc1CNC(=O)C(C)N1CCCC1 (stereo unspecified)" tested_system="Arginase-2, mitochondrial (Homo sapiens)" reported_result="< 4.00"
compound=CCn1c(NCc2ccco2)nc2c(C)nn(C)c2c1=O tested_system="Arginase-2, mitochondrial (Homo sapiens)" reported_result="< 4.00"
compound="CCC(C(=O)NC)N(c1cccc(C)c1)S(C)(=O)=O (stereo unspecified)" tested_system="Arginase-2, mitochondrial (Homo sapiens)" reported_result="< 4.00"
compound=O=C(NCc1ccccn1)[C@]12COC[C@H]1CN(C1CCC1)C2 tested_system="Arginase-2, mitochondrial (Homo sapiens)" reported_result="< 4.00"
compound="CN(Cc1ccccn1)C1COC2(CCN(Cc3cccnc3)CC2)C1 (stereo unspecified)" tested_system="Arginase-2, mitochondrial (Homo sapiens)" reported_result="< 4.00"
compound=O=C(CO)N1CCC(c2cncc(-c3cccc(Cl)c3)n2)CC1 tested_system="Arginase-2, mitochondrial (Homo sapiens)" reported_result="< 4.00"
compound="CS(=O)(=O)NCC(=O)N1CCCC1c1noc(C2CC2)n1 (stereo unspecified)" tested_system="Arginase-2, mitochondrial (Homo sapiens)" reported_result="< 4.00"
compound="O=c1[nH]c2c(c(=O)n1C1CCCCC1)CCC2Nc1ccccc1Cl (stereo unspecified)" tested_system="Arginase-2, mitochondrial (Homo sapiens)" reported_result="< 4.00"
